assay: AUC (0 to infinitive) in Sprague-Dawley rat at 10 mg/kg, IG measured after 48 hrs by LC-MS analysis; assay type: ADME, organism-based; parameters: dose 10 mg/kg, time 48 hrs, route ig; conditions: in vivo, po
OBSERVABLE: AUC(0-inf) (ng·h/mL)
Write the answer as a number in ng·h/mL, unit excluded.

So what's the measured AUC(0-inf) for this one? CCN(CC)Cc1ccccc1CNC(=O)c1cccc(NC(=O)c2ccc(F)cc2)c1
497

###

assay: Brain concentration in ICR mouse at 10 mg/kg, IG measured at 2 hrs by LC-MS analysis; format: ADME, organism-based; conditions: po, read-out: Ct
OBSERVABLE: concentration at 2 h (ng/g)
# number only, unit ng/g dropped from output

Need concentration at 2 h of CCN(CC)Cc1ccccc1CNC(=O)c1cccc(NC(=O)c2ccc(F)cc2)c1 , thanks.
17.7

###

experiment: Tmax in Sprague-Dawley rat at 10 mg/kg, iv measured after 48 hrs by LC-MS analysis; type: ADME, organism-based; conditions: in vivo
OBSERVABLE: Tmax (min)
Please respond with the number in min and leave the unit unwritten.

May I ask what Tmax has been recorded for CCN(CC)Cc1ccccc1CNC(=O)c1cccc(NC(=O)c2ccc(F)cc2)c1 ?
6

###

target: UniProt:P06276
The entries below are paired with their reported IC50.

See these solved cases before continuing.
O=C(NCc1ccccc1)c1cccc(NC(=O)c2cccs2)c1 ... 31300 nM
CCN(CC)Cc1ccccc1CNC(=O)c1cccc(NC(=O)c2ccc(F)cc2)c1C ... 0.26 nM
CCN(CC)Cc1ccccc1CNC(=O)c1cc(NC(=O)c2ccc(F)cc2)cc([N+](=O)[O-])c1 ... 1.04 nM
CCN(CC)Cc1ccccc1CNC(=O)c1cccc(NC(=O)c2cccs2)c1 ... 0.35 nM
Cc1ccccc1NC(=O)c1cccc(NC(=O)c2cccs2)c1 ... 11100 nM

Observed IC50 on UniProt:P06276 for CCN(CC)Cc1ccccc1CNC(=O)c1cc(NC(=O)c2ccc(F)cc2)cc(OC)c1 , please.
136 nM

// map CCCN(CCC)Cc1ccccc1CNC(=O)c1cccc(NC(=O)c2cccs2)c1 to recorded IC50 (system: UniProt:P06276)
0.67 nM

Under UniProt:P06276: IC50 value of CCN(CC)Cc1ccccc1CNC(=O)c1cccc(NC(=O)C2CCCCC2)c1 ?
3.71 nM

###

experiment: Elimination half life in Sprague-Dawley rat at 10 mg/kg, IG measured after 48 hrs by LC-MS analysis; assay type: ADME, organism-based; details: in vivo, po, read-out: beta t1/2 (converted)
OBSERVABLE: half-life (h)
# output: bare number, implied unit h

Form field: reported half-life of CCN(CC)Cc1ccccc1CNC(=O)c1cccc(NC(=O)c2ccc(F)cc2)c1
28.1

###

assay: Plasma concentration in ICR mouse at 10 mg/kg, IG measured at 4 hrs by LC-MS analysis; format: ADME, organism-based; details: po
OBSERVABLE: concentration at 4 h (ng/mL)
Provide only the numeric value, understood in ng/mL.

I have this compound here, CCN(CC)Cc1ccccc1CNC(=O)c1cccc(NC(=O)c2ccc(F)cc2)c1 , and I need its recorded concentration at 4 h.
17.4

###

test: Cytotoxicity against rat PC-12 cells assessed as cell survival rate at 10 uM by MTT assay; format: toxicity, cell-based; conditions: read-out: Activity
Let's look at some compounds and their measured viability at 10 µM.

Tell me the measured viability at 10 µM of CCN(CC)Cc1ccccc1CNC(=O)c1cccc(NC(=O)c2ccco2)c1 , please.
> 70%

###

test: Elimination half life in Sprague-Dawley rat at 10 mg/kg, iv measured after 48 hrs by LC-MS analysis; assay type: ADME, organism-based; settings: in vivo, read-out: beta t1/2 (converted)
OBSERVABLE: half-life (h)
Reply numerically in h, unit not repeated.

Recorded half-life for CCN(CC)Cc1ccccc1CNC(=O)c1cccc(NC(=O)c2ccc(F)cc2)c1 , please?
17.2

###

# maps each entry to its Papp at 18 h
experiment: Permeability of compound incubated for 18 hrs by PAMPA-BBB assay; assay type: ADME; settings: read-out: permeability
Expressed in ×10⁻⁶ cm/s, but write only the number.

Observe how each entry below is paired with its result.
CCN(CC)Cc1ccccc1CNC(=O)c1cccc(NC(=O)c2ccc(Cl)cc2)c1 ... 6.02
CCN(CC)Cc1ccccc1CNC(=O)c1cccc(NC(=O)c2ccc(F)cc2)c1C ... 11.4

Recorded Papp at 18 h for CCN(CC)Cc1ccccc1CNC(=O)c1cccc(NC(=O)c2ccc(F)cc2)c1 , please?
10.2

I'd like to know its Papp at 18 h. The compound in question is CCN(CC)Cc1ccccc1CNC(=O)c1cccc(NC(=O)c2ccco2)c1
6.89

Quick check: Papp at 18 h of CCN(CC)Cc1ccccc1CNC(=O)c1cccc(NC(=O)c2cccs2)c1 ?
19

###

assay: Brain concentration in ICR mouse at 10 mg/kg, IG measured at 6 hrs by LC-MS analysis; type: ADME, organism-based; details: po, read-out: Ct
OBSERVABLE: concentration at 6 h
Please format your answer as a value with the unit trailing.

Consider the molecule shown here: CCN(CC)Cc1ccccc1CNC(=O)c1cccc(NC(=O)c2ccc(F)cc2)c1 What is its recorded concentration at 6 h?
15.3 ng/g

###

test: Cmax in Sprague-Dawley rat at 10 mg/kg, IG measured after 48 hrs by LC-MS analysis; assay type: ADME, organism-based; set-up: time 48 hrs, dose 10 mg/kg, route ig; conditions: in vivo, po
OBSERVABLE: Cmax (ng/mL)
Write it as a number; the unit ng/mL goes unstated.

Please report the recorded Cmax for CCN(CC)Cc1ccccc1CNC(=O)c1cccc(NC(=O)c2ccc(F)cc2)c1 .
36.4

###

assay: Brain concentration in ICR mouse at 10 mg/kg, IG measured at 1 hr by LC-MS analysis; format: ADME, organism-based; settings: po, read-out: Ct
OBSERVABLE: concentration at 1 h (ng/g)
Report the value in ng/g with no unit label.

Need concentration at 1 h, item CCN(CC)Cc1ccccc1CNC(=O)c1cccc(NC(=O)c2ccc(F)cc2)c1
37.5

###

Consider compounds characterized by their Ki with Cholinesterase (Homo sapiens, UniProt P06276).
Sequence (P06276 whole entry): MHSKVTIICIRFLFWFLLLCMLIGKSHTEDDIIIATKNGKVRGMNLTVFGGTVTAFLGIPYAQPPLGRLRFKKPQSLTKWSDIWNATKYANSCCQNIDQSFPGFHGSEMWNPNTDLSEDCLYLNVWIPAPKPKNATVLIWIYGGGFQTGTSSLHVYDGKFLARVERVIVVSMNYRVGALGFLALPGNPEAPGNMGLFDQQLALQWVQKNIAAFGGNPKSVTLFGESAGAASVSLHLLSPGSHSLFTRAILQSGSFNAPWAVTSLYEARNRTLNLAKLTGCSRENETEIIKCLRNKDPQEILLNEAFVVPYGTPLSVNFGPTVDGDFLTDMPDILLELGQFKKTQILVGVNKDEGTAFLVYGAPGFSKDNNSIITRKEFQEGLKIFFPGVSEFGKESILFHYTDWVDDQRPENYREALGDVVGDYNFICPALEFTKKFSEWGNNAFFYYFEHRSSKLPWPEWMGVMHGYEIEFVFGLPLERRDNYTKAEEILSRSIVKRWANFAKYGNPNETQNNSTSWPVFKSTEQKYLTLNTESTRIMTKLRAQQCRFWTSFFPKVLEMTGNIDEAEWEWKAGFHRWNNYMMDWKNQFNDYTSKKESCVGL
I only need the number, in nM, no unit after it.

CCN(CC)Cc1ccccc1CNC(=O)c1cccc(NC(=O)c2ccc(F)cc2)c1 ... 0.61

API: value(readout= Ki, system= Cholinesterase (Homo sapiens, UniProt P06276), query= Cc1ccc2c(c1)sc(-c1ccc(N(C)C)cc1)[n+]2C )
800

What is its Ki for Cholinesterase (Homo sapiens, UniProt P06276)? Entry: CCN(CC)Cc1ccccc1CNC(=O)c1cc(C)cc(NC(=O)c2ccc(F)cc2)c1
0.094

###

# Lookup of reported Kd keyed by entry
target: UniProtKB P06276; test: Binding affinity to human BChE assessed as dissociation constant by surface plasmon resonance assay
Give your result as the value with the unit written after it.

CCN(CC)Cc1ccccc1CNC(=O)c1cccc(NC(=O)c2ccc(F)cc2)c1 ... 0.37 nM

Now for the compound whose Kd we want.
Look up Kd for this compound: CCN(CC)Cc1ccccc1CNC(=O)c1cc(C)cc(NC(=O)c2ccc(F)cc2)c1
0.064 nM

###

assay: Tmax in Sprague-Dawley rat at 10 mg/kg, IG measured after 48 hrs by LC-MS analysis; type: ADME, organism-based; conditions: in vivo, po
OBSERVABLE: Tmax (min)
Write down the numeric answer in min and omit the unit.

So what's the measured Tmax for this one? CCN(CC)Cc1ccccc1CNC(=O)c1cccc(NC(=O)c2ccc(F)cc2)c1
37.8

###

biological target: Cholinesterase (Equus caballus); test: Inhibition of horse serum BChE using acetylthiocholine iodide or butyrylthiocholine iodide as substrate preincubated for 5 mins followed by substrate addition by Ellman's method
Sequence (P81908 whole entry): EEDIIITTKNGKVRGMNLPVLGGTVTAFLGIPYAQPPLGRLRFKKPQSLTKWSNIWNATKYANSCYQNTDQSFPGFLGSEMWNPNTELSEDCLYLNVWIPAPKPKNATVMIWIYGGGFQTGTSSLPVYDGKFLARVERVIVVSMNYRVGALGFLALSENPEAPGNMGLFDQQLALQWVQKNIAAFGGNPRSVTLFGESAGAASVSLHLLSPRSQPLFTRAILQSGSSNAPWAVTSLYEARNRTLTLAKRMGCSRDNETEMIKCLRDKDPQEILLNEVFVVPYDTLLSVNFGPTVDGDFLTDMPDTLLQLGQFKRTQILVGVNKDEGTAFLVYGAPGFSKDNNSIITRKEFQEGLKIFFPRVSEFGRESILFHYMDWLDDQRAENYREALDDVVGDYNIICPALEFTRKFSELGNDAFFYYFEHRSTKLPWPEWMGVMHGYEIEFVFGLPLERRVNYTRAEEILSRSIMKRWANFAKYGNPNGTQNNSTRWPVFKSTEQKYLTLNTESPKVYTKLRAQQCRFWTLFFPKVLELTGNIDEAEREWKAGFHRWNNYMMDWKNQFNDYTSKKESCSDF
OBSERVABLE: IC50 (nM)
The figure you give is taken to be in nM; do not add the unit.

Consider the worked cases shown below.
CCN(CC)Cc1ccccc1CNC(=O)c1cc(C)cc(NC(=O)c2ccc(F)cc2)c1 ... 0.021
CCN(CC)Cc1ccccc1CNC(=O)c1cc(NC(=O)c2ccc(F)cc2)ccc1Br ... 3.53
CCN(CC)Cc1ccccc1CNC(=O)c1cccc(NC(=O)c2c(F)c(F)c(F)c(F)c2F)c1 ... 0.48
CCN(CC)Cc1ccccc1CNC(=O)c1ccc(NC(=O)c2ccc(F)cc2)cc1 ... 4.99
CCN(CC)Cc1ccccc1CNC(=O)c1ccc(Br)c(NC(=O)c2ccc(F)cc2)c1 ... 2.42
CCN(CC)Cc1ccccc1CNC(=O)c1cc(C#N)cc(NC(=O)c2ccc(F)cc2)c1 ... 1.51

Consider the compound shown here: CCN(CC)Cc1ccccc1CNC(=O)c1cccc(NC(=O)C2CCCCC2)c1 What is its recorded IC50?
7.9

Given the entry CCN(CC)Cc1ccccc1CNC(=O)c1cccc(NC(=O)c2ccc(F)cc2)c1Br , report its measured IC50.
14.4

Data request, read-out IC50, for CCN(CC)Cc1cccc(CNC(=O)c2cccc(NC(=O)c3cccs3)c2)c1
55000
